Would you mind telling me the reported inhibition of each entry?
- target-under-test: Cyclin-dependent kinase 2 (Homo sapiens) (UniProt P24941);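 also: mean inhibition measured against the CDK2/cyclin E complex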
- assay-conditions: at 1 µM
Give bare numbers, in %.

Take a look at these entries with their results.
# smiles-representation, target-under-test, observed-value
rows = [
    ("Fc1cccc(COc2ccc(Nc3ncnc4sc(-c5ccco5)cc34)cc2Cl)c1", "Cyclin-dependent kinase 2 (Homo sapiens) (UniProt P24941)", 6.69),
    ("CCOc1ccc2c(-c3ccnc(Nc4cccc(C(F)(F)F)c4)n3)cnn2n1", "Cyclin-dependent kinase 2 (Homo sapiens) (UniProt P24941)", 14.1),
    ("CCc1nn2ncccc2c1-c1ccnc(NC2CC2)n1", "Cyclin-dependent kinase 2 (Homo sapiens) (UniProt P24941)", 9.7),
    ("c1ccc(-c2nc3n(c2-c2ccc4c(c2)OCO4)CCC3)nc1", "Cyclin-dependent kinase 2 (Homo sapiens) (UniProt P24941)", 3.84),
    ("COc1ccc(-c2oc3ncnc(N)c3c2-c2ccc(NC(=O)Nc3cc(C(F)(F)F)ccc3F)cc2)cc1", "Cyclin-dependent kinase 2 (Homo sapiens) (UniProt P24941)", 28.8),
    ("[O-][S+]1CCN(Cc2ccc(-c3ccc4ncnc(Nc5ccc(OCc6cccc(F)c6)c(Cl)c5)c4c3)o2)CC1", "Cyclin-dependent kinase 2 (Homo sapiens) (UniProt P24941)", 6.57),
    ("COc1ccc2[nH]c3c4[nH]c5ccc(OC)cc5c4c4c(c3c2c1)C(=O)NC4=O", "Cyclin-dependent kinase 2 (Homo sapiens) (UniProt P24941)", 4.91),
    ("CS(=O)(=O)CCNCc1ccc(-c2ccc3ncnc(Nc4ccc(OCc5ccccc5)c(C(F)(F)F)c4)c3c2)o1", "Cyclin-dependent kinase 2 (Homo sapiens) (UniProt P24941)", 4.6),
]

# per-item lookup of inhibition; items listed below
1. N#Cc1c(NC(=O)c2ccc(F)cc2)sc2c1CCCC2
2. COC(=O)Nc1nc2ccc(Oc3ccc(NC(=O)Nc4cccc(Cl)c4)cc3)cc2[nH]1
3. CC(C)(CO)CNC(=O)c1ccc2c(c1)/C(=N/Nc1ccc(S(N)(=O)=O)cc1)C(=O)N2
4. COc1ccc(-c2nn3ncccc3c2-c2ccnc(Nc3ccc4c(c3)OCCO4)n2)cc1
5. Nc1nc(-c2ccc(F)cc2)c(-c2ccc3ncccc3n2)s1
6. Cc1cccc2c1NC(=O)/C2=N\Nc1ccc(S(N)(=O)=O)cc1
7. COc1ccc(CNC(=O)c2ccc(-c3cc(-c4nnc(C)o4)ccc3C)cc2)cc1

[1.03, 0.48, 81.2, -0.22, 10.7, 3.99, 3.08]

----------
- target-under-test: Serine/threonine-protein kinase D1 (Homo sapiens);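 also: values given as mean inhibition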
- Sequence (whole entry): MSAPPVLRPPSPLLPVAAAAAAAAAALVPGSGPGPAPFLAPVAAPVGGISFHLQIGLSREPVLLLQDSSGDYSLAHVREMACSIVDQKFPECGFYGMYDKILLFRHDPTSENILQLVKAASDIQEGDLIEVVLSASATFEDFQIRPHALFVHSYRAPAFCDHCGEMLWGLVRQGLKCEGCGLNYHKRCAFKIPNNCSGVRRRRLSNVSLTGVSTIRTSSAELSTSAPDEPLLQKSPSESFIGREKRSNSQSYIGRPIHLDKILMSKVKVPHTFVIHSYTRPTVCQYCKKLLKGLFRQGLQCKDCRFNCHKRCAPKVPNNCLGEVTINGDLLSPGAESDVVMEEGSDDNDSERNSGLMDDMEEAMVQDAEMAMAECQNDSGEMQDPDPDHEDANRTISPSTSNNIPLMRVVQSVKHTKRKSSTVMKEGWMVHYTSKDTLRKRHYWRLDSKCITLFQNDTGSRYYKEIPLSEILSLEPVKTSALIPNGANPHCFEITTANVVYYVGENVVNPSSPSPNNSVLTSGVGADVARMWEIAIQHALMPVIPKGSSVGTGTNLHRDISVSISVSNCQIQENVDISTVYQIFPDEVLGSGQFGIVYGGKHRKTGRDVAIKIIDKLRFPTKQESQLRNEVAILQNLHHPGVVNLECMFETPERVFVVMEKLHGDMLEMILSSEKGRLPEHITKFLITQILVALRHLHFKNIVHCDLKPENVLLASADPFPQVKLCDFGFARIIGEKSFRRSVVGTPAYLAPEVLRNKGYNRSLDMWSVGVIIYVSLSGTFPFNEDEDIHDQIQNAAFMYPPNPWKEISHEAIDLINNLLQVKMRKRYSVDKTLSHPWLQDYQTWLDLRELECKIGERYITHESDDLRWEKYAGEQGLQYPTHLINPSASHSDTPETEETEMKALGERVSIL
- assay-conditions: at 0.1 µM
Assign inhibition to each entry below.
Give bare numbers, in %.

// worked examples, inhibition included
# smiles-representation, endpoint-label, unit-string, observed-value
records = [
    ("Nc1nc(-c2ccc(F)cc2)c(-c2ccc3ncccc3n2)s1", "inhibition", "%", 8),
    ("NS(=O)(=O)c1ccc(N/N=C2\\C(=O)Nc3ccc4ncccc4c32)cc1", "inhibition", "%", 12.6),
]

Report inhibition for every entry below.
1. Cc1ccc(O)cc1Nc1ccnc2cc(-c3ccccn3)ccc12
2. CCn1c(-c2nonc2N)nc2cnc(Oc3cccc(NC(=O)c4ccc(N(C)C)cc4)c3)cc21
3. COc1ccc(-c2cc3c(N)ncnc3o2)cc1
4. CN(C)CCOc1ccc(-c2nc(-c3ccncc3)c(-c3ccc4c(c3)CC/C4=N\O)[nH]2)cc1
5. Nc1ncc(-c2cccc(S(N)(=O)=O)c2)c2scc(-c3ccc(F)c(Cl)c3)c12

1. 5.06
2. 1.61
3. -1
4. 3.26
5. 6.59

----------
- target-under-test: Phosphorylase b kinase gamma catalytic chain, skeletal muscle/heart isoform (Homo sapiens) (UniProt Q16816);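 also: values are averaged percent inhibition of PHKG1 kinase activity, from the GSK PKIS inhibitor-set screen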
- Sequence (Q16816 whole entry, looked up, canonical isoform): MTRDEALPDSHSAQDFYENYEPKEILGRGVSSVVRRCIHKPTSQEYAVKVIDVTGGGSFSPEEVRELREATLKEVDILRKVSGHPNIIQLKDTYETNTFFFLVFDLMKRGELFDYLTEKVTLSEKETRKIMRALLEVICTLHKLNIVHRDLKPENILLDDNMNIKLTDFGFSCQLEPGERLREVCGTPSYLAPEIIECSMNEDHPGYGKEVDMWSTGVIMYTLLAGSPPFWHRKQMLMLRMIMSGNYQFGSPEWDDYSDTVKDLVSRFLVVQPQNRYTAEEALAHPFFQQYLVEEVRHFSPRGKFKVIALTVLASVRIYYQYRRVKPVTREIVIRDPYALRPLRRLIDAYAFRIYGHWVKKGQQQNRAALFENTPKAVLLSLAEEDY
- assay-conditions: at 0.1 µM
Task for the reader: assign each of the following molecules its reported inhibition.
Answer shape: numeric part, then the unit.

Example cases with answers are listed next.
# smiles-representation, inhibition
data = [
    ("CCn1cc(-c2ccnc3[nH]ccc23)c(-c2cccc(NC(=O)Nc3ccc(OCc4ccccc4)cc3)c2)n1", "1.58%"),
    ("CCNC(=O)O[C@H]1CN[C@H](C#Cc2cc3ncnc(Nc4ccc(OCc5cccc(F)c5)c(Cl)c4)c3s2)C1", "0.81%"),
    ("CN1CCC(n2cnc(-c3ccc(F)cc3)c2-c2ccnc(N)n2)CC1", "1.61%"),
]

Could you report inhibition for every entry in the following list?
1. CC(C)(CO)CNC(=O)c1ccc2c(c1)/C(=N/Nc1ccc(S(N)(=O)=O)cc1)C(=O)N2
2. c1ccc(-c2nc3n(c2-c2ccc4c(c2)OCO4)CCC3)nc1

1: 6.19%; 2: 3.66%

----------
- Tested on: Tyrosine-protein kinase ABL1 (Homo sapiens), P00519 [Y253F]
- assay-conditions: at 0.1 µM
endpoint-label: inhibition (%)
Numbers only, in %.

Please review the following examples before continuing.
# smiles-representation, target-under-test, observed-value
rows = [
    ("NS(=O)(=O)c1ccc(Nc2ncc(-c3ccccc3)o2)cc1", "Tyrosine-protein kinase ABL1 (Homo sapiens), P00519 [Y253F]", 5.61),
    ("Fc1cccc(COc2ccc(Nc3ncnc4sc(-c5ccco5)cc34)cc2Cl)c1", "Tyrosine-protein kinase ABL1 (Homo sapiens), P00519 [Y253F]", 3.33),
    ("CCNC(=O)O[C@H]1CN[C@H](C#Cc2cc3ncnc(Nc4ccc(OCc5cccc(F)c5)c(Cl)c4)c3s2)C1", "Tyrosine-protein kinase ABL1 (Homo sapiens), P00519 [Y253F]", 3.4),
]

Batch lookup, inhibition per entry.
1. COc1ccc(-c2nn3ncccc3c2-c2ccnc(Nc3ccc4c(c3)OCCO4)n2)cc1
2. COc1cc2c(cc1Nc1nc(Nc3ccsc3C(N)=O)c3cc[nH]c3n1)N(C(=O)CN(C)C)CCC2(C)C
3. COc1ccc(CNC(=O)c2ccc(-c3cc(-c4nnc(C)o4)ccc3C)cc2)cc1
4. COc1cccc(-c2c[nH]c3c(N/N=C/c4ccncc4)ncnc23)c1
5. COc1cccc(-n2ncc3c(N/N=C/c4ccc(F)cc4)ncnc32)c1
6. CCn1cc(-c2ccnc3[nH]ccc23)c(-c2cccc(NC(=O)Nc3ccc(OCc4ccccc4)cc3)c2)n1

2.95
3.45
3.15
73
58.5
0.58

----------
- target-under-test: Protein-tyrosine kinase 6 (Homo sapiens)
- assay-conditions: at 0.1 µM
- Description: GSK_PKIS: BRK mean inhibition at 0.1 uM [Nanosyn]
endpoint-label: inhibition (%)
Give bare numbers, in %.

Examples with answers:
# smiles-representation, inhibition [%]
measured = [
    ("Clc1ccc(-c2nn3ncccc3c2-c2ccnc(Nc3ccccc3)n2)cc1", 7.5),
    ("CC(C)COC(=O)c1ccc2c(c1)/C(=C/Nc1ccc(S(N)(=O)=O)cc1)C(=O)N2", -2.24),
    ("COc1ccc(-c2oc3ncnc(N)c3c2-c2ccc(NC(=O)Nc3cc(C(F)(F)F)ccc3F)cc2)cc1", 3.11),
    ("CC(=O)NCc1cccc(C#Cc2cncnc2Nc2ccc(OCc3cccc(F)c3)c(Cl)c2)c1", 0.12),
]

// next item, inhibition requested
Read off the recorded inhibition for COC(=O)c1sc(-n2cnc3cc(OC)c(OC)cc32)cc1OCc1ccccc1C(F)(F)F
2.66
